Molecular target: Thromboxane-A synthase (Rattus norvegicus) (UniProt P49430)
Sequence (whole entry): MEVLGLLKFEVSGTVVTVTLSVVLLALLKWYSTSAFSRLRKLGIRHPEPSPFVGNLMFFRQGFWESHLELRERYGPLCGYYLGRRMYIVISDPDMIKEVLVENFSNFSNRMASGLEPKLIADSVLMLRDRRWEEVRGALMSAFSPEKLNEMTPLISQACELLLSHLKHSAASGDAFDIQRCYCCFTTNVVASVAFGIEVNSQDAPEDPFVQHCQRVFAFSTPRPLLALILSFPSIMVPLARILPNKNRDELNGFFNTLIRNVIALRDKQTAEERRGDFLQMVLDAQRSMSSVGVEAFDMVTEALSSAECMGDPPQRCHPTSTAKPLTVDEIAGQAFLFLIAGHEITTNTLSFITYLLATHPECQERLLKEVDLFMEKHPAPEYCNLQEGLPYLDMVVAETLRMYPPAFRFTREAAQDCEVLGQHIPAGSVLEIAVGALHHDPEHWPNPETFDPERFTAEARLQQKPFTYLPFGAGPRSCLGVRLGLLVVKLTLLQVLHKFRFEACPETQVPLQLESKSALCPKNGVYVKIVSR
Assay: Inhibition of rat thromboxane A2 synthase evaluated as percent inhibition of thromboxane B2 formation after 24 hr of administration at 10 mg/kg.
Assay type: functional, organism-based
Parameters: dose 10 mg/kg
RECORDED METRIC: inhibition (%)

- CC1=C(C)C(=O)C(C(CCCCC(=O)O)c2cccnc2)=C(C)C1=O (stereo not drawn): 64
- CC1=C(C)C(=O)C(C(CCCCCC(=O)O)c2cccnc2)=C(C)C1=O (stereo not drawn): 90
- CCOC(=O)/C=C/C1=C(C)C(=O)C(Cc2cccnc2)=C(C)C1=O: 80

====

Experiment: physchem
Details: octanol/water
Description: Partition coefficient (logP)
RECORDED METRIC: logP

• CC1=C(C)C(=O)C(C(c2cccnc2)c2cccc(/C=C(\C)C(=O)O)c2)=C(C)C1=O (centres undefined) = 2.08
• CC1=C(Cc2cccnc2)C(=O)c2ccccc2C1=O = 2.77
• CC(=O)OCCCCC(C1=C(C)C(=O)C(C)=C(C)C1=O)c1cccnc1 (centres undefined) = 4.08
• CC1=C(/C=C(\C)C(=O)O)C(=O)C(C)=C(Cc2cccnc2)C1=O = -0.65
